Tested on: K562 SF3B1 K700E vs K562 SF3B1 WT
assay_text: surviving fraction ratio K562 SF3B1 K700E / K562 SF3B1 WT (each relative to DMSO); higher = less selective killing of SF3B1 K700E cells
experimental_conditions: 5nM; 5 days
Please enter T where surviving fraction ratio K562 SF3B1 K700E / K562 SF3B1 WT is greater than or equal to 0.9, and F where it is lower.

molecule	assay_target	assigned_class
CCN(CC)CCNC(=O)c1c(C)[nH]c(/C=C2\C(=O)Nc3ccc(F)cc32)c1C	K562 SF3B1 K700E vs K562 SF3B1 WT	T
CCN(CC)CCCCNc1ncc2cc(-c3cc(OC)cc(OC)c3)c(NC(=O)NC(C)(C)C)nc2n1	K562 SF3B1 K700E vs K562 SF3B1 WT	T
Cn1cc(C2=Nc3cc(NC(=O)C(N)C4CCCCC4)cc4c3C2=CNNC4=O)cn1 (configuration not stated)	K562 SF3B1 K700E vs K562 SF3B1 WT	F
COc1cc2nccc(Oc3ccc(NC(=O)C4(C(=O)Nc5ccc(F)cc5)CC4)cc3)c2cc1OC [Cabozantinib]	K562 SF3B1 K700E vs K562 SF3B1 WT	F
CC[C@@H](C(=O)[C@@H](C)[C@@H](O)[C@H](C)[C@@H]1O[C@@H]([C@@H](CC)C(=O)O)CC[C@@H]1C)[C@H]1O[C@]2(C=C[C@@H](O)[C@]3(CC[C@@](C)([C@H]4CC[C@](O)(CC)[C@H](C)O4)O3)O2)[C@H](C)C[C@@H]1C	K562 SF3B1 K700E vs K562 SF3B1 WT	F

// query Would you say CCn1c(C(=O)N(C2CC2)C2CC2)cc2c3c(ncn3C)c(Nc3cc(C)n(C)n3)nc21 shows surviving fraction ratio K562 SF3B1 K700E / K562 SF3B1 WT at minimum 0.9?
// result T

Measured values drawn from the supplement of paper PMC10412459 for this set.
